# Tested on: Adrenergic receptor beta
# assay method text: Compound was evaluated in vivo for beta-Adrenoceptor blocking potency in cat and is expressed as total dose, infused over a period of 30 minutes, causing 50% inhibition of the tachycardia (iv administration); NA means not active
# Type: functional, organism-based
# experimental parameters: Felis catus
The source made the active and inactive calls. The calls are words filed in the database; no cut-off is given here.

{"molecule": "C=CCc1cc(/C=C/CO)ccc1OCC(O)CNC(C)(C)C (centres undefined)", "Inhibition": "inactive"}
{"molecule": "CC(C)NCC(O)COc1cc(/C=C/CO)ccc1Br (centres undefined)", "Inhibition": "inactive"}
{"molecule": "COc1ccc(/C=C/CO)cc1OCC(O)CNC(C)C (centres undefined)", "Inhibition": "inactive"}
{"molecule": "CCOc1cc(/C=C/CO)ccc1OCC(O)CNC(C)C (centres undefined)", "Inhibition": "inactive"}
